Header: IC50 / Tyrosine-protein kinase Fyn (Homo sapiens) / multiple publications

Query (compound): CCN1CCC(Nc2ccc3c(c2)/C(=C(\c2cccc(Cl)c2)c2ncc[nH]2)C(=O)N3)CC1 ; field requested: IC50 < 0.05 µM

Would you kindly repeat that for CC(C)Cc1ccc(C(=O)Nc2ccc(F)c(CCc3cc(NC(=O)c4ncccn4)[nH]n3)c2)cn1 ? 0.016 µM

Please answer likewise for COc1cc(O[C@H]2CCN(C3COC3)CC2(F)F)c2c(Nc3c(F)ccc4c3OCO4)ncnc2c1 < 0.1 µM

For CCN1CCC(Nc2ccc3c(c2)/C(=C(\c2ccc(C)cc2)c2nc(C)c[nH]2)C(=O)N3)CC1 then? < 0.05 µM

Next compound up: CCN1CCC(Nc2ccc3c(c2)/C(=C(/c2nc(C)c[nH]2)c2cc(F)c(Cl)cc2Cl)C(=O)N3)CC1 < 0.05 µM

Entry COc1cc(Nc2ncnc(-n3c(NCc4ccccc4F)nc4ccccc43)n2)cc(OC)c1OC please > 8.97 µM

Thanks! And NC(=O)c1cccc(Nc2ncnc(Nc3cc(-c4ccco4)n[nH]3)n2)c1 ? 1.1 to 6.62 µM

Now this one: COCCN1CCC(Nc2ccc3c(c2)/C(=C(\c2cccc(Cl)c2)c2ncc[nH]2)C(=O)N3)CC1 < 0.05 µM

Here is the next compound: COc1cc(Nc2ncnc(Nc3ccc4c(c3)Cc3ccccc3-4)n2)cc(OC)c1OC 0.906 to 5.44 µM

// next record COc1cc(Nc2ncnc(Nc3ccc(Br)c4ccccc34)n2)cc(OC)c1OC > 9.33 µM

Next entry: COc1cc(Nc2ncnc(-n3c(N[C@@H](C)c4ccccc4)nc4ccccc43)n2)cc(OC)c1OC < 0.804 µM

One more compound: CCCc1ccc(/C(=C2/C(=O)Nc3ccc(NC4CCN(CC)CC4)cc32)c2ncc[nH]2)cc1 < 0.05 µM

Consider next the compound COc1cc(Nc2ncnc(-n3c(NCc4ccc(F)cc4)nc4ccccc43)n2)cc(OC)c1OC in the same way. > 8.97 µM

Param item: COc1cc(O[C@H]2CCN(C)CC2(F)F)c2c(Nc3c(F)ccc4c3OCO4)ncnc2c1 < 0.1 µM

Then this compound: COc1ccc(CNc2nc3ccccc3n2-c2ncnc(Nc3cc(OC)c(OC)c(OC)c3)n2)cc1 > 8.76 µM

Can you check COc1cc(Nc2ncnc(-n3ncc4ccccc43)n2)cc(OC)c1OC next? 1.06 to 6.34 µM

Okay, and CN1CCCC(Oc2ccc(C(=O)Nc3n[nH]c4cc(Nc5ccccc5F)ccc34)cc2)C1 (single isomer, unassigned) ? 0.548 µM

Also need COc1cc(Nc2ncnc(-n3c(NCc4ccccc4)nc4ccccc43)n2)cc(OC)c1OC , thanks. < 0.827 µM

How about this compound: CCN1CCC(Nc2ccc3c(c2)/C(=C(\c2ccccc2)c2nc4cc(Cl)ccc4[nH]2)C(=O)N3)CC1 < 0.05 µM

What would you report for COc1cc(Nc2ncnc(-n3cnc4ccccc43)n2)cc(OC)c1OC ? > 11.9 µM

Try COc1cc(Nc2ncnc(-n3c(NC4c5ccccc5CC4O)nc4ccccc43)n2)cc(OC)c1OC (stereo not shown) next. > 8.56 µM

// repeat for CCN1Cc2cnc(Nc3cc(CCc4cc(NC(=O)c5cccc(C(F)(F)F)c5)ccc4C)n[nH]3)cc2C1 and report 0.008 µM

Another compound: CCN1CCC(Nc2ccc3c(c2)/C(=C(\c2ccc(F)c(Cl)c2)c2ncc[nH]2)C(=O)N3)CC1 < 0.05 µM

Same read-out for COc1cc(Nc2ncnc(Nc3cc(OC)c(OC)c(OC)c3)n2)cc(OC)c1OC ? 0.902 to 5.41 µM

Would you mind doing COc1cc2ccn(-c3ncnc(Nc4cc(OC)c(OC)c(OC)c4)n3)c2cc1OC as well? > 10.3 µM

Then what about the compound COc1cc(Nc2ncnc(Nc3cccc4ccccc34)n2)cc(OC)c1OCCN1CCOCC1 ? 0.796 to 4.78 µM

Thanks! And COc1cc(Nc2ncnc(-n3c(N)nc4ccccc43)n2)cc(OC)c1OCCN1CCOCC1 ? 0.812 to 4.87 µM

Try COCCN1CCC(Nc2ccc3c(c2)/C(=C(\c2cc(F)cc(F)c2)c2ncc[nH]2)C(=O)N3)CC1 next. < 0.05 µM

Continue with CCOc1ccc(Nc2ncnc(Nc3ccc(OCc4ccccc4)cc3)n2)cc1OCC > 9.84 µM

Similarly, COCCOc1ccc(Nc2ncnc(-n3c(N)nc4ccccc43)n2)cc1OCCOC ? > 9.97 µM

How about this compound: COc1cc(Nc2ncnc(N(c3ccccc3)c3nc4ccccc4[nH]3)n2)cc(OC)c1OC > 9.58 µM

----------
pIC50: −log10 of the molar value.
The entries that follow carry pIC50 values tested on Tyrosine-protein kinase Fyn (Homo sapiens, UniProt P06241), drawn from several published reports.

Can you look up pIC50 on Tyrosine-protein kinase Fyn (Homo sapiens, UniProt P06241) for COc1cc(Nc2ncnc(-n3c(NCC(C)C)nc4ccccc43)n2)cc(OC)c1OC ? > 6.05

How about Cc1ccc(NC(=O)c2cc(C(F)(F)F)ccc2F)cc1CCc1cc(Nc2cnccn2)[nH]n1 ? 7.20

Can you handle COc1cc(Nc2ncnc(Nc3cc(OC)c(OC)c(OC)c3)n2)cc(OC)c1 next? 4.96 to 5.07

And for COc1cc(Nc2ncnc(Nc3cccc(Cl)c3)n2)cc(OC)c1OC ? > 5.99

And the next one, Cc1nccnc1Nc1cc(CCc2cc(NC(=O)c3cccc(C(F)(F)F)c3)ccc2F)n[nH]1 ? 7.74

Can you check CCN1CCC(Nc2ccc3c(c2)/C(=C(\c2ccc(Cl)cc2)c2nc4ccccc4[nH]2)C(=O)N3)CC1 next? > 7.30

Next compound up: COc1cc(OC2CCN(C)CC2(F)F)c2c(Nc3c(Cl)ccc4c3OCO4)ncnc2c1 (racemic) > 7.00

Subsequent entry: CCN1CCC(Nc2ccc3c(c2)/C(=C(\c2ccc(OC)cc2)c2ncc[nH]2)C(=O)N3)CC1 > 7.30

----------
pIC50 for Tyrosine-protein kinase Fyn (Homo sapiens, UniProt P06241) - collated from the literature.
pIC50: −log10 of the molar value.

// lookup pIC50 for COCCN1CCC(Nc2ccc3c(c2)/C(=C(\c2cccc(OC)c2)c2nc4ccccc4[nH]2)C(=O)N3)CC1 > 7.30

Could you do the same for COc1cc(Nc2ncnc(Nc3ccc4cn[nH]c4c3)n2)cc(OC)c1OC , please? < 4.94

Next up: COc1cc(Nc2ncnc(-n3c(N)nc4ccccc43)n2)cc(OCCN2CCOCC2)c1OC 5.31 to 6.09

Next compound: COc1cc(Nc2ncnc(-n3c(NCc4ccc(Cl)cc4F)nc4ccccc43)n2)cc(OC)c1OC < 5.08

Now this one: O=C(Nc1n[nH]c2cc(Nc3ccccc3F)ccc12)c1ccc(N2CCOCC2)cc1 6.43

Lookup CN1CCC(c2ccc(C(=O)Nc3n[nH]c4nc(Nc5ccccc5Cl)ccc34)cc2)CC1 6.59

Also need COc1ccccc1Nc1ncnc(Nc2cc(OC)c(OC)c(OC)c2)n1 , thanks. > 5.98

Proceed to Cc1nc(CN2CCCC2)cc(Nc2cc(CCc3cc(NC(=O)c4cccc(C(F)(F)F)c4)ccc3F)[nH]n2)n1 7.77

----------
# pIC50 against UniProt P06241, merged from multiple literature sources
pIC50: −log10 of the molar value.

GET /values?readout=pIC50&system=UniProt P06241&item= COc1ccc2[nH]c(/C(=C3\C(=O)Nc4ccc(NC5CC(C)(C)NC(C)(C)C5)cc43)c3ccccc3)nc2c1 5.30 to 6.30

Field entry: CCN1CC[C@@H](Oc2cc(OC)cc3ncnc(Nc4c(F)ccc5c4OCO5)c23)C(F)(F)C1 > 7.00

Now this one: CCN1CCC(Nc2ccc3c(c2)/C(=C(\c2ccc(F)cc2)c2nc4ccccc4[nH]2)C(=O)N3)CC1 6.30 to 7.30

Same thing, different molecule: COc1cc(Nc2ncnc(Nc3cc(-c4ccco4)n[nH]3)n2)cc(OC)c1 5.20 to 5.98

----------
Literature compilation of IC50 measurements on Tyrosine-protein kinase Fyn (Homo sapiens, UniProt P06241).

# value lookup — system Tyrosine-protein kinase Fyn (Homo sapiens, UniProt P06241), readout IC50, item COc1cc(Nc2ncnc(-c3c(O)[nH]c4ccc(Cl)cc34)n2)cc(OC)c1OC 5.61 to 8.18 µM

And CCN1CCC(Nc2ccc3c(c2)/C(=C(\c2ccc(C)cc2)c2ncc[nH]2)C(=O)N3)CC1 ? < 0.05 µM

What do we get for CCN1CCC(Nc2ccc3c(c2)/C(=C(\c2ccc(C)c(F)c2)c2nc4ccccc4[nH]2)C(=O)N3)CC1 ? < 0.05 µM

Quick one: Cc1ncc(Nc2cc(CCc3cc(NC(=O)c4cccc(C(F)(F)F)c4)ccc3F)n[nH]2)cn1 0.099 µM

Here is the next compound: CC(C)N1CCC(c2ccc(C(=O)Nc3n[nH]c4nc(Nc5ccccc5F)ccc34)cc2)CC1 0.209 µM

Would you mind doing COc1cc(Nc2ncnc(-n3c(N[C@@H](CO)c4ccccc4)nc4ccccc43)n2)cc(OC)c1OC as well? 0.779 to 4.67 µM

Moving on to the next compound: COc1ccc(Nc2ncnc(Nc3cc(-c4ccco4)n[nH]3)n2)cc1OC 1.05 to 6.33 µM

Same question, COc1ccc(Nc2ncnc(Nc3ccc4[nH]ccc4c3)n2)cc1OC this time 6.62 to 9.66 µM
